# study system: Tyrosine-protein kinase JAK1 (Homo sapiens) (UniProt P23458);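 further: each value is a mean inhibition of JAK1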
# Sequence (P23458 whole entry): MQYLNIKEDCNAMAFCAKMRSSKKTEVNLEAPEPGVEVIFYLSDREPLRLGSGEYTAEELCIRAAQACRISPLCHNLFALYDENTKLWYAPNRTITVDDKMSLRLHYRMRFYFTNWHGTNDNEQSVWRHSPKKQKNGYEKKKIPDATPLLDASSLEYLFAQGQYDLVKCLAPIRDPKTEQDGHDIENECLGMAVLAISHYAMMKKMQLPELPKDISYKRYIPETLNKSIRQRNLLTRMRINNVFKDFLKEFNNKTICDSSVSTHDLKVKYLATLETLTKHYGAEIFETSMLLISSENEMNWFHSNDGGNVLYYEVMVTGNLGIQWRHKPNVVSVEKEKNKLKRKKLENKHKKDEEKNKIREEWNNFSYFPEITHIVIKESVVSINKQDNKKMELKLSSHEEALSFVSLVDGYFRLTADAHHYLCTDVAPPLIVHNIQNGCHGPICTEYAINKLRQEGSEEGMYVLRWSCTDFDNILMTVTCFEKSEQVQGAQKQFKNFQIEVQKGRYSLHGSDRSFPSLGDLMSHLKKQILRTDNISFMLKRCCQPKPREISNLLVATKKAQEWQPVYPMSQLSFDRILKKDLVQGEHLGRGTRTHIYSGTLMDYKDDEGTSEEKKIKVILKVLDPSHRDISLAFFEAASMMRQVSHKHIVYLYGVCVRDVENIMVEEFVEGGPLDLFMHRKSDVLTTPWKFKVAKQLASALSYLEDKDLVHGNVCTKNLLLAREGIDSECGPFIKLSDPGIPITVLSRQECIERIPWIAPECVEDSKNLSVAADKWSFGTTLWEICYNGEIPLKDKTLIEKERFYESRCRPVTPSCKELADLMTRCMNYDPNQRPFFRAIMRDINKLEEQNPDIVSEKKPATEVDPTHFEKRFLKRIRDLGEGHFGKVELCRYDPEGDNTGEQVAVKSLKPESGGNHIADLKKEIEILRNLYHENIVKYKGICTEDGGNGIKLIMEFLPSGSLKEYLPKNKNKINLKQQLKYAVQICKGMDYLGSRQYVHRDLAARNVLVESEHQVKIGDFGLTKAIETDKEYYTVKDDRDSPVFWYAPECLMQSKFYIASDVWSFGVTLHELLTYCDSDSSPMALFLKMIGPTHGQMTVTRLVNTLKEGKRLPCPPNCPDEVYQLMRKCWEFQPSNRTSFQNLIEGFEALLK
# conditions: at 1 µM
experimental endpoint: inhibition (%)
Answer format: numeric, % implied, no suffix.

Please review the entries below; each comes with its answer.
molecule smiles: Cc1cccc(Nc2ncc(-c3ccccc3)o2)c1
experimental endpoint: inhibition
experimental value: 0.42
//
molecule smiles: Clc1ccc(-c2nn3ncccc3c2-c2ccnc(Nc3ccccc3)n2)cc1
experimental endpoint: inhibition
experimental value: -2.06
//
molecule smiles: Fc1ccc(-c2nn3ccccc3c2-c2ccncc2)cc1
experimental endpoint: inhibition
experimental value: -0.62
//
molecule smiles: NS(=O)(=O)c1ccc(N/N=C2\C(=O)Nc3ccc4ncccc4c32)cc1
experimental endpoint: inhibition
experimental value: 17.3
//
molecule smiles: Fc1ccc(-c2cc(-c3c[nH]nc3-c3ccccn3)ccn2)cc1
experimental endpoint: inhibition
experimental value: 14.2

Ask: Record request: inhibition value, item N#Cc1c(NC(=O)CN2CCOCC2)sc2c1CCCC2
Reply: 9.38

Ask: Record request: inhibition value, item COC(=O)c1sc(-n2cnc3cc(OC)c(OC)cc32)cc1OCc1ccccc1C(F)(F)F
Reply: -0.23

Ask: Record request: inhibition value, item COC(=O)Nc1nc2ccc(S(=O)(=O)c3ccc(NC(=O)Nc4cc(C(F)(F)F)ccc4F)cc3)cc2[nH]1
Reply: -1.29

Ask: Record request: inhibition value, item CC(=O)NCc1cccc(C#Cc2cncnc2Nc2ccc(OCc3cccc(F)c3)c(Cl)c2)c1
Reply: 4.76

Ask: Record request: inhibition value, item COc1ccc(-c2nn3ncccc3c2-c2ccnc(Nc3ccc4c(c3)OCCO4)n2)cc1
Reply: 1.48

* * *

# study system: G protein-coupled receptor kinase 6 (Homo sapiens)
# conditions: at 0.1 µM
compounds and their reported inhibition
Answer format: numeric, % implied, no suffix.

molecule smiles: Nc1nc(-c2cccc(Cl)c2)c(-c2ccc3ncccc3n2)s1
display unit: %
experimental value: 10.4

molecule smiles: COC(=O)c1sc(-n2cnc3cc(OC)c(OC)cc32)cc1OCc1ccccc1C(F)(F)F
display unit: %
experimental value: -0.86

molecule smiles: CCn1c(-c2nonc2N)nc2ccccc21
display unit: %
experimental value: 1.21

molecule smiles: CCn1c(-c2nonc2N)nc2c(C#CC(C)(C)O)ncc(OC3CCNCC3)c21
display unit: %
experimental value: 4.09

molecule smiles: CCCN(CCS(C)(=O)=O)Cc1ccc(-c2ccc3ncnc(Nc4ccc(OCc5cccc(F)c5)c(Cl)c4)c3c2)o1
display unit: %
experimental value: 5.12

Ask: Please provide the recorded inhibition for COc1ccc(-c2oc3ncnc(N)c3c2-c2ccc(NC(=O)Nc3cc(C(F)(F)F)ccc3F)cc2)cc1 , tested on G protein-coupled receptor kinase 6 (Homo sapiens).
Reply: 4.19

Ask: Please provide the recorded inhibition for c1cc(-c2cnn3nc(N4CCOCC4)ccc23)nc(NC2CC2)n1 , tested on G protein-coupled receptor kinase 6 (Homo sapiens).
Reply: 0.85

Ask: Please provide the recorded inhibition for Fc1ccc(-c2nn3ncccc3c2-c2ccnc(Nc3ccc4c(c3)OCCO4)n2)cc1 , tested on G protein-coupled receptor kinase 6 (Homo sapiens).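 Further: mean percent inhibition of GRK6, GSK PKIS screen.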
Reply: 2.14

* * *

# study system: Tyrosine-protein kinase Lck (Homo sapiens) (UniProt P06239);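 further: reported Lck percent inhibition is a mean value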
# Sequence (P06239 2-509 limits assumed): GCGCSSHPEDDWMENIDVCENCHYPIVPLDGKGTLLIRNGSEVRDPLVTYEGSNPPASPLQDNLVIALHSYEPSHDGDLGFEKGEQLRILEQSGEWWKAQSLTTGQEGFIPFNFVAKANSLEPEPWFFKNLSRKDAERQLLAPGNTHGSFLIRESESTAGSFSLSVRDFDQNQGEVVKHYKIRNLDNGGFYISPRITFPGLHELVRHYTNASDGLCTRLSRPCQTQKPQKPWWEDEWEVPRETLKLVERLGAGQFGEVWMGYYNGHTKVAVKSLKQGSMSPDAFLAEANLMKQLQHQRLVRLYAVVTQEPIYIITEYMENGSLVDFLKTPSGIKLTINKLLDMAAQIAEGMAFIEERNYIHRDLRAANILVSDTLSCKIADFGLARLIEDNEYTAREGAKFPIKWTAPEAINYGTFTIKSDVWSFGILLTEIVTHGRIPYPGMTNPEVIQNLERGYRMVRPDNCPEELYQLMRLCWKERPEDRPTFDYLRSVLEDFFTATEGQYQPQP
# conditions: at 1 µM
Use Satisfied when the recorded inhibition is no lower than 30%; use Not satisfied when it is lower.

Completed entries (count: 8):
molecule: CC(=O)NCc1cccc(C#Cc2cncnc2Nc2ccc(OCc3cccc(F)c3)c(Cl)c2)c1
class assignment: Not satisfied
//
molecule: Clc1ccc(-c2nn3ncccc3c2-c2ccnc(Nc3ccccc3)n2)cc1
class assignment: Satisfied
//
molecule: CNC(=O)c1cncc(/C=C/c2ccccc2Cl)c1
class assignment: Not satisfied
//
molecule: Cc1ccc2c(-c3ccnc(Nc4ccccc4)n3)c(-c3ccc(F)cc3)nn2n1
class assignment: Satisfied
//
molecule: CC1=C(C(=O)Nc2cc(Cl)c3[nH]ncc3c2)C(c2ccc(C(F)(F)F)cc2)CC(=O)N1 (stereo not given)
class assignment: Not satisfied
//
molecule: COc1cc2ncn(-c3cc(OCc4ccccc4C(F)(F)F)c(C(=O)N(C)C)s3)c2cc1OC
class assignment: Not satisfied
//
molecule: CCn1c(-c2nonc2N)nc2c(C#CC(C)(C)O)ncc(OC3CCNCC3)c21
class assignment: Not satisfied
//
molecule: CCCN1CCC(c2ccc(Nc3nc(Nc4cc(F)ccc4C(N)=O)c4cc[nH]c4n3)c(OC)c2)CC1
class assignment: Not satisfied

Ask: Decide: inhibition of CCCN(CCS(C)(=O)=O)Cc1ccc(-c2ccc3ncnc(Nc4ccc(OCc5cccc(F)c5)c(Cl)c4)c3c2)o1 >= 30%?
Reply: Not satisfied

Ask: Decide: inhibition of COc1ccc(-c2nn3ncccc3c2-c2ccnc(Nc3ccc4c(c3)OCCO4)n2)cc1 >= 30%?
Reply: Satisfied

* * *

# study system: Ephrin type-B receptor 2 (Homo sapiens)
# Sequence (whole entry): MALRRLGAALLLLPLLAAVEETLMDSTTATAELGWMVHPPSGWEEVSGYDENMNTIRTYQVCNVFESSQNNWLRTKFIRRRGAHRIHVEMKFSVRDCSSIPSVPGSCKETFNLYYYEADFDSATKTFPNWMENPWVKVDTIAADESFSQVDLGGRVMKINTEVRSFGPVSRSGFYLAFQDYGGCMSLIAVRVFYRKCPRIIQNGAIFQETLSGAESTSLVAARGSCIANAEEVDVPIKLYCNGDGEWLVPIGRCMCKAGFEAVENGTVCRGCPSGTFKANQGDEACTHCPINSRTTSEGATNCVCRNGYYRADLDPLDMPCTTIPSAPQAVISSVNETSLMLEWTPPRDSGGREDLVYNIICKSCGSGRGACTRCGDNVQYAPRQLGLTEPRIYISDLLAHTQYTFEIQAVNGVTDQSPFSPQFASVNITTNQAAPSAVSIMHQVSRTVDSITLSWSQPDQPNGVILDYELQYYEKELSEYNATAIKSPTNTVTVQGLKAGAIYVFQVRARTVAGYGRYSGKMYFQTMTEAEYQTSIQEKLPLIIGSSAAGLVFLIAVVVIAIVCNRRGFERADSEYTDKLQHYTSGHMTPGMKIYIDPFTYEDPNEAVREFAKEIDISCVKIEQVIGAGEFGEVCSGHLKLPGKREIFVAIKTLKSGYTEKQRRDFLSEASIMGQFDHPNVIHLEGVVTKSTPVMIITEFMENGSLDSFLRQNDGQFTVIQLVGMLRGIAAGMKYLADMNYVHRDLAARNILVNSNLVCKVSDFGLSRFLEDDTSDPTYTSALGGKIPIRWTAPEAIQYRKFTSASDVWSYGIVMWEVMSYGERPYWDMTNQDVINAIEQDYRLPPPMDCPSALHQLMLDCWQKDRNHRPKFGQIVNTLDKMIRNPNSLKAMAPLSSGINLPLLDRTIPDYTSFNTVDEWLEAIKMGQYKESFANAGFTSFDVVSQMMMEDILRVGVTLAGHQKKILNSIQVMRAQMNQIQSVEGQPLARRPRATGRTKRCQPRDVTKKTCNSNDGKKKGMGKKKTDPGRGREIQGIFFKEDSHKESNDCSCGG
# conditions: at 1 µM
# Description: GSK_PKIS: EPHB2 mean inhibition at 1 uM [Nanosyn]
experimental endpoint: inhibition
Give me the value, and tack the unit on after it.

Please review the entries below; each comes with its answer.
compound: CC1=C(C(=O)Nc2cc(Cl)c3[nH]ncc3c2)C(c2ccc(C(F)(F)F)cc2)CC(=O)N1 (configuration not stated)
experimental value: 6.01%
//
compound: COc1ccc(-c2cc(-c3c[nH]nc3-c3ccccn3)ccn2)cc1
experimental value: 10.2%
//
compound: NC(=O)c1sc(-n2cnc3ccc(C(F)(F)F)cc32)cc1OCc1ccccc1Br
experimental value: 7.8%
//
compound: Nc1nc(-c2cccc(Cl)c2)c(-c2ccc3ncccc3n2)s1
experimental value: 15.5%
//
compound: N#Cc1c(NC(=O)c2ccc(F)cc2)sc2c1CCCC2
experimental value: 5.96%

Ask: Record request: inhibition value, item COc1cc2c(cc1Nc1nc(Nc3ccsc3C(N)=O)c3cc[nH]c3n1)N(C(=O)CN(C)C)CCC2(C)C
Reply: 9.01%

Ask: Record request: inhibition value, item CCN1CCC(CC(=O)Nc2n[nH]c3nnc(-c4cccc(F)c4F)cc23)CC1
Reply: 3.83%

Ask: Record request: inhibition value, item CNC(=O)c1cccc(C#Cc2cncnc2Nc2ccc(OCc3cccc(F)c3)c(Cl)c2)c1
Reply: 6.47%

* * *

# study system: Tyrosine-protein kinase FRK (Homo sapiens)
# conditions: at 1 µM
experimental endpoint: inhibition (%)
Answer format: numeric, % implied, no suffix.

Please review the entries below; each comes with its answer.
compound: CC(=O)NCc1cccc(C#Cc2cncnc2Nc2ccc(OCc3cccc(F)c3)c(Cl)c2)c1
experimental endpoint: inhibition
display unit: %
experimental value: 1.03
//
compound: Cc1ccc2c(-c3ccnc(Nc4ccccc4)n3)c(-c3ccc(F)cc3)nn2n1
experimental endpoint: inhibition
display unit: %
experimental value: 14.2
//
compound: COC(=O)Nc1nc2ccc(Oc3ccc(NC(=O)Nc4cccc(Cl)c4)cc3)cc2[nH]1
experimental endpoint: inhibition
display unit: %
experimental value: 0.48

Next up:
Ask: Record request: inhibition value, item Fc1ccc(-c2nn3ccccc3c2-c2ccncc2)cc1
Reply: 1.58
